Could you please report measured log10(EC50) for the items listed next?
tested-target: hGcgR (Homo sapiens, UniProt P47871)
Sequence (P47871 26-477): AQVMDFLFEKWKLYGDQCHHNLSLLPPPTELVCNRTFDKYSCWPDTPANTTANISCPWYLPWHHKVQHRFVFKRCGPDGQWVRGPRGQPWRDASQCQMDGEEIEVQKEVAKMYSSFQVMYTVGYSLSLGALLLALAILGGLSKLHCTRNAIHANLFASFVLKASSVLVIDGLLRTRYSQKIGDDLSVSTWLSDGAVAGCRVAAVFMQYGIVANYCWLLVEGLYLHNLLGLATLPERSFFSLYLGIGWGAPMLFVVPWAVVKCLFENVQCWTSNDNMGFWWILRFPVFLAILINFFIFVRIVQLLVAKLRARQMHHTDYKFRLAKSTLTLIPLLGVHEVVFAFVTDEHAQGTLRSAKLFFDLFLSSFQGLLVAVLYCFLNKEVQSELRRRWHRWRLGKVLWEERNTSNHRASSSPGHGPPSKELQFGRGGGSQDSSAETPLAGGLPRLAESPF
run-description: Functional cAMP activation in the presence of 0.1% casein (no HSA);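 also: intracellular cAMP rise after 30 min at 37 °C, read by HTRF against a cAMP standard curve, scaled from buffer only (0%) to maximal control ligand response (100%)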
Format: cell-based
condition-set: 0.1% casein, no HSA; geometric mean; read-out: Relative cAMP EC50, hGcgR
Starred links: 1 amine or outer side, 2 acyl side, 3 side chain; linkers in the order of their positions; H or OH if unused. Non-standard residues stand in square brackets, D forms with d. Groups on a side chain read outwards from the residue. No end group written: not given here. *: point of attachment. C18 diacid = O=C(O)CCCCCCCCCCCCCCCCC(=O)*; αMePhe(2-F) = C[C@](N)(Cc1ccccc1F)C(=O)O; γGlu = O=C(O)[C@H](CCC(=O)[*:2])N[*:1]; αMe4Pal = C[C@](N)(Cc1ccncc1)C(=O)O; αMeY = C[C@](N)(Cc1ccc(O)cc1)C(=O)O; 4Pal = N[C@@H](Cc1ccncc1)C(=O)O; αMeL = CC(C)C[C@](C)(N)C(=O)O; αMeS = C[C@](N)(CO)C(=O)O; Orn = NCCC[C@H](N)C(=O)O; AEEA = NCCOCCOCC(=O)O; Aib = CC(C)(N)C(=O)O
The base-10 logarithm of EC50, taken with EC50 in nM, is what appears here.

# input Assign log10(EC50) to the following record: H-Y[Aib]QGT[αMePhe(2-F)]TSD[4Pal][αMeS]I[αMeL]LD[Orn][Orn]([AEEA-γGlu-C18 diacid])AQ[αMe4Pal]EFI[dE][αMeY]LIEGGPSSGAPPPSGGGE-NH2 [Example 1213]
# output 0.23

# input Assign log10(EC50) to the following record: H-Y[Aib]Q[dA]T[αMePhe(2-F)]TSD[4Pal][αMeS]I[αMeL]LD[Orn]K([γGlu-γGlu-C18 diacid])AQ[Aib]EFI[dE][αMeY]LIEGGPSSGAPPPSGSE-NH2 [Example 1224]
# output 0.37

# input Assign log10(EC50) to the following record: Y[Aib]QGT[αMePhe(2-F)]TSD[4Pal][αMeS]I[αMeL]LD[Orn]K([γGlu-γGlu-C18 diacid])AQ[αMe4Pal]EFI[dE][αMeY]LIEGGPSSGAPPPEGGGEEE-NH2 [Example 1221]
# output 0.36

# input Assign log10(EC50) to the following record: H-Y[Aib]QGT[αMePhe(2-F)]TSD[4Pal][αMeS]I[αMeL]LD[Orn]K([AEEA-γGlu-C18 diacid])AQ[αMe4Pal]EFI[dE][αMeY]LIEGGPPS[Aib][Orn]PPPSGGGE-NH2 [Example 1199]
# output 0.31

# input Assign log10(EC50) to the following record: H-Y[Aib]QGT[αMePhe(2-F)]TSD[4Pal][αMeS]I[αMeL]LD[Orn]QAQ[αMe4Pal]EFI[dE][αMeY]LIEGGPSSGAPPPSGSE-NH2 [Example 1233]
# output 0.98

# input Assign log10(EC50) to the following record: H-Y[Aib]QGT[αMePhe(2-F)]TSD[4Pal][αMeS]I[αMeL]LD[Orn][Orn]([AEEA-γGlu-C18 diacid])AQ[αMe4Pal]EFI[dE][αMeY]LIEGGPSSGAPPPSGS-NH2 [Example 1211]
# output 0.16

# input Assign log10(EC50) to the following record: Y[Aib]QGT[αMePhe(2-F)]TSD[4Pal][αMeS]I[αMeL]LD[Orn]K([AEEA-γGlu-C18 diacid])AQ[αMe4Pal]EFI[dQ][αMeY]LIEGGPSSGAPPPSGS-NH2 [Example 1202]
# output -0.30

# input Assign log10(EC50) to the following record: H-Y[Aib]QGT[αMePhe(2-F)]TSD[4Pal]SI[αMeL]LD[Orn][Orn]([γGlu-γGlu-C18 diacid])AQ[αMe4Pal][Orn]FI[dE][αMeY]LIEGGPSSGEPPPETE-NH2 [Example 1209]
# output -0.01

# input Assign log10(EC50) to the following record: Y[Aib]QGT[αMePhe(2-F)]TSD[4Pal][αMeS]I[αMeL]LD[Orn]QAQ[αMe4Pal]EFI[dE][αMeY]LIEGGPSSGAPPPSGGGE-NH2 [Example 1234]
# output 1.06

# input Assign log10(EC50) to the following record: H-Y[Aib]QGT[αMePhe(2-F)]TSD[4Pal][αMeS]I[αMeL]LD[Orn]K([AEEA-γGlu-C18 diacid])AQ[αMe4Pal]EFI[dE][αMeY]LIEGGPPS[Aib][Orn]PPP[Orn]GGGE-NH2 [Example 1197]
# output 0.27

# input Assign log10(EC50) to the following record: H-Y[Aib]QGT[αMePhe(2-F)]TSD[4Pal][αMeS]I[αMeL]LD[Orn]K([AEEA-γGlu-C18 diacid])AQ[αMe4Pal]EFI[dE][αMeY]LIEGGPPS[Aib][Orn]PPPEGE-NH2 [Example 1194]
# output 0.31

# input Assign log10(EC50) to the following record: H-Y[Aib]QGT[αMePhe(2-F)]TSD[4Pal][αMeS]I[αMeL]LD[Orn]K([γGlu-γGlu-C18 diacid])AQ[αMe4Pal]EFI[dE][αMeY]LIEGGPSSGAPPPSGGGEE-NH2 [Example 1218]
# output 0.27

# input Assign log10(EC50) to the following record: H-Y[Aib]QGT[αMePhe(2-F)]TSD[4Pal][αMeS]I[αMeL]LD[Orn]K([AEEA-γGlu-C18 diacid])AQ[αMe4Pal]EFI[dE][αMeY]LIEGGPSSGAPPPSGGGEE-NH2 [Example 1214]
# output 0.27

# input Assign log10(EC50) to the following record: H-Y[Aib]QGT[αMePhe(2-F)]TSD[4Pal][αMeS]I[αMeL]LD[Orn]K([AEEA-γGlu-C18 diacid])AQ[αMe4Pal]EFI[dE][αMeY]LIEGGPPS[Aib]EPPPSGSE-NH2 [Example 1200]
# output 0.18

# input Assign log10(EC50) to the following record: H-Y[Aib]QGT[αMePhe(2-F)]TSD[4Pal][αMeS]I[αMeL]LD[Orn]K([γGlu-γGlu-C18 diacid])AQ[αMe4Pal]EFI[dE][αMeY]LIEGGPPS[Aib][Orn]PPP[Orn]SE-NH2 [Example 1228]
# output 0.30

# input Assign log10(EC50) to the following record: H-Y[Aib]QGT[αMePhe(2-F)]TSD[4Pal][αMeS]I[αMeL]LD[Orn]K([AEEA-γGlu-C18 diacid])AQ[αMe4Pal]EFI[dE][αMeY]LIEGGPPS[Aib]EPPPSGGGE-NH2 [Example 1201]
# output 0.25

# input Assign log10(EC50) to the following record: Y[Aib]QGT[αMePhe(2-F)]TSD[4Pal]SI[αMeL]LD[Orn]QAQ[αMe4Pal][Orn]FI[dE][αMeY]LIEGGPSSGEPPPETE-NH2 [Example 1230]
# output 1.81

# input Assign log10(EC50) to the following record: H-Y[Aib]QGT[αMePhe(2-F)]TSD[4Pal][αMeS]I[αMeL]LD[Orn]K([AEEA-γGlu-C18 diacid])AQ[αMe4Pal]EFI[dE][αMeY]LIEGGPSSGAPPPEGGGEE-NH2 [Example 1216]
# output 0.26

# input Assign log10(EC50) to the following record: H-Y[Aib]Q[dA]T[αMePhe(2-F)]TSD[4Pal][αMeS]I[αMeL]LD[Orn]K([AEEA-γGlu-C18 diacid])AQ[Aib]EFI[dE][αMeY]LIEGGPSSGAPPPSGGGE-NH2 [Example 1223]
# output 0.42

Each recorded value in this set is attributed to patent US20240270821A1.
